# Measured on: smooth muscle myosin S1 (Gallus gallus, UniProt P10587)
# Construct: purchased Cytoskeleton #CS-MYS05
# Sequence (P10587 84-789 limits assumed): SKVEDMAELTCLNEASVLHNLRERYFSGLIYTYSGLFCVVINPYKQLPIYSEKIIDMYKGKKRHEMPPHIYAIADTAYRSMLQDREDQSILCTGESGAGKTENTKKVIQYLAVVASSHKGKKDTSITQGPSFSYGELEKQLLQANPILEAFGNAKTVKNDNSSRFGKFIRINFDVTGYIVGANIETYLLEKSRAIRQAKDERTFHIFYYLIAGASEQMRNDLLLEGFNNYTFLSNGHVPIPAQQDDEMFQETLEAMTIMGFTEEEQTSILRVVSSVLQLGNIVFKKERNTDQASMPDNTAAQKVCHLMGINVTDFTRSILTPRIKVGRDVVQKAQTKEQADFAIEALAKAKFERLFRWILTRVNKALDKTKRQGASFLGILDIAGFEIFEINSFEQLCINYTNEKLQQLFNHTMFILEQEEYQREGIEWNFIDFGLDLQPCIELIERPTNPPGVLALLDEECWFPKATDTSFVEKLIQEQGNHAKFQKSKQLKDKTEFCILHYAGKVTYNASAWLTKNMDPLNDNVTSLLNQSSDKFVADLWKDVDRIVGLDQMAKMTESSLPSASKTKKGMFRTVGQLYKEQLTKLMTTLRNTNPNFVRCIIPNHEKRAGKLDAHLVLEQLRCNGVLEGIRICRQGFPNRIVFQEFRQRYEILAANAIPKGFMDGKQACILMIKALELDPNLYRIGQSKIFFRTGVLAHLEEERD
# Sequence (P02607 whole entry partner): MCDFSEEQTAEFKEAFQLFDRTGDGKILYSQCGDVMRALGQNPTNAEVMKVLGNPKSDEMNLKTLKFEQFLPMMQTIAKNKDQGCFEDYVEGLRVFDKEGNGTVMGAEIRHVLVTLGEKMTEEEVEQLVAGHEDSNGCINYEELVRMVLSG
# Assay: Inhibition of hydrolysis of ATP by smooth muscle myosin S1 fragments
# Assay type: biochemical
# Test parameters: 100 μM compound
Measurement type: inhibition at 100 µM (%)

O=C1CCc2ccc(Cn3nc(-c4cnc(OCC5(F)CC5)nc4)ccc3=O)cc21: 8
O=c1ccc(-c2cnc(OCC(F)F)nc2)nn1Cc1cc(F)c2c(c1)CCC2: 5.3

A = O=c1ccc(-c2cnc(Oc3cncc(C(F)(F)F)c3)nc2)nn1Cc1ccc2c(c1)CCC2
B = O=C1CCc2ccc(Cn3nc(-c4cnc(OCC(F)(F)F)nc4)ccc3=O)c(F)c21
C = O=c1ccc(-c2cnc(OCC(F)(F)F)nc2)nn1Cc1ccc2c(c1)C(F)(F)CC2
Ascending by inhibition at 100 µM, please. As an answer, provide the labels arranged in the order called for.
C, B, A

a = O=C1CCc2ccc(Cn3nc(-c4cnc(Oc5cncc(F)c5)nc4)ccc3=O)cc21
b = O=C1CCc2ccc(Cn3nc(-c4cnc(Oc5cncc(C(F)(F)F)c5)nc4)ccc3=O)cc21
c = O=C1CCc2ccc(Cn3nc(-c4cnc(O[C@H]5CCOC5)nc4)ccc3=O)cc21
Ascending by inhibition at 100 µM, please. As an answer, provide the labels arranged in the order called for.
a, b, c

---

# Measured on: cardiac myosin SII (Bos taurus, UniProt Q9BE39)
# Construct: purchased Cytoskeleton #MYO3-A
# Sequence (Q9BE39 whole entry): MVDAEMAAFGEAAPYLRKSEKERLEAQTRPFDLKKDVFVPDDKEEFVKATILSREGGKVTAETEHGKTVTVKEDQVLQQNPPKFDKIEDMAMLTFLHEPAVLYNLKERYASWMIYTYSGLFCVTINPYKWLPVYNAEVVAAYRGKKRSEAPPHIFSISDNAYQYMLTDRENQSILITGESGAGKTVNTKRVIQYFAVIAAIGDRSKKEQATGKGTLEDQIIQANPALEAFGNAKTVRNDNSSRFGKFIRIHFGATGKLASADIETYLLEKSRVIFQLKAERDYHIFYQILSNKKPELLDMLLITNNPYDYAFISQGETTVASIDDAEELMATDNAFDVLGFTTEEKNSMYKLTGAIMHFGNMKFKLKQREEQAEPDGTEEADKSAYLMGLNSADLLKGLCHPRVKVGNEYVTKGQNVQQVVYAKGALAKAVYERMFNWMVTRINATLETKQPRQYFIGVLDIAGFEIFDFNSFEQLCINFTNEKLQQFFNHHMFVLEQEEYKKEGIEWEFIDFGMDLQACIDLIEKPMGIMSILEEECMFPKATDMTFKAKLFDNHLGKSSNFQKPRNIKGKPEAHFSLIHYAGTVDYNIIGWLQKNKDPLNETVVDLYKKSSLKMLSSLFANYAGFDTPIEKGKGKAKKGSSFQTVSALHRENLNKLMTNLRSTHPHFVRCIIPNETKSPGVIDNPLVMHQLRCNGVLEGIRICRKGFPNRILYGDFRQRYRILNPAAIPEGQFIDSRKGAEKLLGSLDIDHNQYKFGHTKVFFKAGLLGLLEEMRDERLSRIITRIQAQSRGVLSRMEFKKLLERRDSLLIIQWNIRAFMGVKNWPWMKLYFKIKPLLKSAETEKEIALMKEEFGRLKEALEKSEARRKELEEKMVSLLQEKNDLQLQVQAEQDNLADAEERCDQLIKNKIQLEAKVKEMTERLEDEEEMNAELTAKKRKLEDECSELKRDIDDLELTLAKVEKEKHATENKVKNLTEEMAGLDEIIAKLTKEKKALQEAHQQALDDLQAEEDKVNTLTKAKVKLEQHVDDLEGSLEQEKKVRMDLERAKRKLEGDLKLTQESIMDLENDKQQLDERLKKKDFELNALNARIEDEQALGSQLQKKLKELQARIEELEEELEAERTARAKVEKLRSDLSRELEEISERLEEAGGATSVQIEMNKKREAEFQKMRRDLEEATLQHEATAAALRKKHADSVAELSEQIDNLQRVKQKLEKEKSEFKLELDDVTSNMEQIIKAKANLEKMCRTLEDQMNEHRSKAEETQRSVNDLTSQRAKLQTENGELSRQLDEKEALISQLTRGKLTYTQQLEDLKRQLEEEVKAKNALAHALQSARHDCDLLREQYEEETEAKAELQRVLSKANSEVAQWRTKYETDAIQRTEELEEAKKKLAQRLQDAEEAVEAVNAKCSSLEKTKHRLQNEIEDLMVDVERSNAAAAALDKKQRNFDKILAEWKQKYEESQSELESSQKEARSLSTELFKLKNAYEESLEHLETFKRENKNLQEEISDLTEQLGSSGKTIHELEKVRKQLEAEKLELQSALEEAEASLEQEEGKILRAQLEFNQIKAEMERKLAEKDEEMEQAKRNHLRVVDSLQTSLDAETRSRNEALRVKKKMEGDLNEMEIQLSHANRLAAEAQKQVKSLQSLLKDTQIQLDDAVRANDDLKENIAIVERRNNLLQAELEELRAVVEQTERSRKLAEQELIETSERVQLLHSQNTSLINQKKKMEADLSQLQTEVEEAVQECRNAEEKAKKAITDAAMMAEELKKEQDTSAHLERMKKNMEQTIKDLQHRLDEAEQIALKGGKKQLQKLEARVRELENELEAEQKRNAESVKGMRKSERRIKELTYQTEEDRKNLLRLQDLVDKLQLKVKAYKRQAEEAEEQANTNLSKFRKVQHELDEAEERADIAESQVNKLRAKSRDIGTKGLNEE
# Sequence (P85100 whole entry partner): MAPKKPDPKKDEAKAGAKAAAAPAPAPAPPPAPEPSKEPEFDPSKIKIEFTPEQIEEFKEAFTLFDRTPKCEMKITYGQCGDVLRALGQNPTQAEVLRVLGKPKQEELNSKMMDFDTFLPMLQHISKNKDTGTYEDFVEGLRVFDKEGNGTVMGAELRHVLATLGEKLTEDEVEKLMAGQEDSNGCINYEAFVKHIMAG
# Sequence (Q3SZE5 whole entry partner): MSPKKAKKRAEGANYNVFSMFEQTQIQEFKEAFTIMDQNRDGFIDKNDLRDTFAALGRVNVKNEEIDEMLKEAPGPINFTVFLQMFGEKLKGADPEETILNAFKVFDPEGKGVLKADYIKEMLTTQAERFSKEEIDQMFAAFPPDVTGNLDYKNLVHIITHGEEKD
# Assay: Inhibition of hydrolysis of ATP by cardiac myosin SII
# Type: biochemical
# Test parameters: 100 μM compound
Measurement type: inhibition at 100 µM (%)

Example entries begin here.
O=c1ccc(-c2cnc(OCC(F)F)nc2)nn1Cc1ccc2c(c1)CCC2: 2
O=C1CCc2cc(F)c(Cn3nc(-c4cnc(OCC(F)(F)F)nc4)ccc3=O)cc21: -7
O=c1ccc(-c2cnc(OCC(F)F)nc2)nn1Cc1cc(F)c2c(c1)CCC2: 15.8

A = O=c1ccc(-c2cnc(OCC(F)(F)F)nc2)nn1Cc1ccc2c(c1)CC1CC21 (single isomer, unassigned) [Compound 162]
B = O=c1ccc(-c2cnc(OCC3CC3(F)F)nc2)nn1Cc1ccc2c(c1)CCC2 (stereo not drawn)
Input pair: A , B . Output: entry with lower inhibition at 100 µM. Your answer should be the label of the entry you select.
B

a = O=c1ccc(-c2cnc(Oc3ccnc(C(F)(F)F)c3)nc2)nn1Cc1ccc2c(c1)CCC2
b = O=c1ccc(-c2cnc(Oc3cncc(C(F)(F)F)c3)nc2)nn1Cc1ccc2c(c1)CCC2
Which item exceeds the other in inhibition at 100 µM, a or b ? Your answer should be the label of the entry you select.
b

1 = O=c1ccc(-c2cnc(OCC(F)(F)F)nc2)nn1Cc1ccc2c(c1)C(F)(F)CC2
2 = O=C1CCc2ccc(Cn3nc(-c4cnc(Oc5cncc(C(F)(F)F)c5)nc4)ccc3=O)cc21
3 = O=c1ccc(-c2cnc(OCC(F)(F)F)nc2)nn1Cc1ccc2c(c1)CCCC2(F)F
Rank order required: inhibition at 100 µM, descending. As an answer, provide the labels arranged in the order called for.
3, 2, 1

I = O=c1ccc(-c2cnc(Oc3cncc(F)c3)nc2)nn1Cc1ccc2c(c1)CCC2
II = CN1CC(Oc2ncc(-c3ccc(=O)n(Cc4ccc5c(c4)CC5)n3)cn2)C1
III = O=c1ccc(-c2cnc(C3CC3)nc2)nn1Cc1ccc2c(c1)CC2
Ascending by inhibition at 100 µM, please. As an answer, provide the labels arranged in the order called for.
I, II, III
